Method notes: Selectivity index, ratio of LC50 for cytotoxicity in human U937 cells to EC50 for antileishmanial activity against GFP-tagged Leishmania panamensis MHOM/CO/87/UA140 intracellular amastigotes infected in human U937 cells
Assay type: toxicity, cell-based
Recorded endpoint: selectivity ratio
// return a plain number; no unit text

### Prompt Give the measured selectivity ratio for COc1ccc(/C=C/C(=O)OCCCCCCCCCOc2cc(Cl)ccc2Oc2ccc(Cl)cc2Cl)cc1OC
### Response 2.21

### Prompt Give the measured selectivity ratio for O=C(/C=C/c1ccc(O)c(O)c1)OCCCCCCCCOc1cc(Cl)ccc1Oc1ccc(Cl)cc1Cl
### Response 3.11

### Prompt Give the measured selectivity ratio for O=C(/C=C/c1ccc(O)c(O)c1)OCCCCCCCCCCCCOc1cc(Cl)ccc1Oc1ccc(Cl)cc1Cl
### Response 4.08

### Prompt Give the measured selectivity ratio for O=C(/C=C/c1ccc(O)c(O)c1)OCCCCCOc1cc(Cl)ccc1Oc1ccc(Cl)cc1Cl
### Response 0.53

---

Method notes: Selectivity index, ratio of LC50 for cytotoxicity in human U937 cells to EC50 for antitrypanosomal activity against Trypanosoma cruzi Tulahuen intracellular amastigotes transfected with beta-galactosidase infected in human U937 cells
Assay type: toxicity, cell-based
Assign selectivity ratio to each entry below.
// return a plain number; no unit text

### Prompt Give the measured selectivity ratio for Oc1cc(Cl)ccc1Oc1ccc(Cl)cc1Cl
### Response 3.95

### Prompt Give the measured selectivity ratio for O=C(/C=C/c1ccc(O)c(O)c1)OCCCCCCCCCOc1cc(Cl)ccc1Oc1ccc(Cl)cc1Cl
### Response 0.09

### Prompt Give the measured selectivity ratio for O=C(/C=C/c1ccc(O)c(O)c1)OCCCCOc1cc(Cl)ccc1Oc1ccc(Cl)cc1Cl
### Response 1.46

---

Method notes: Selectivity index, ratio of LC50 for cytotoxicity in human U937 cells to EC50 for antitrypanosomal activity against Trypanosoma cruzi Tulahuen intracellular amastigotes transfected with beta-galactosidase infected in human U937 cells
Assay type: toxicity, cell-based
Threshold-based label: selectivity ratio under 3 gives true, selectivity ratio not under 3 gives false.

### Prompt hey, is selectivity ratio for COc1ccc(CCC(=O)OCCCOc2cc(Cl)ccc2Oc2ccc(Cl)cc2Cl)cc1OC lower than 3 or not?
### Response false

### Prompt hey, is selectivity ratio for O=C(Cn1ccnc1[N+](=O)[O-])NCc1ccccc1 [BENZNIDAZOLE] lower than 3 or not?
### Response false

### Prompt hey, is selectivity ratio for O=C(/C=C/c1ccc(O)c(O)c1)OCCCCCCCCOc1cc(Cl)ccc1Oc1ccc(Cl)cc1Cl lower than 3 or not?
### Response true

### Prompt hey, is selectivity ratio for O=C(/C=C/c1ccc(O)c(O)c1)OCCCCCCCCCCCCOc1cc(Cl)ccc1Oc1ccc(Cl)cc1Cl lower than 3 or not?
### Response false

### Prompt hey, is selectivity ratio for O=C(/C=C/c1ccc(O)c(O)c1)OCCCCCOc1cc(Cl)ccc1Oc1ccc(Cl)cc1Cl lower than 3 or not?
### Response true

### Prompt hey, is selectivity ratio for COc1ccc(/C=C/C(=O)OCCCCCCCOc2cc(Cl)ccc2Oc2ccc(Cl)cc2Cl)cc1OC lower than 3 or not?
### Response false

### Prompt hey, is selectivity ratio for COc1ccc(/C=C/C(=O)OCCCCCCCCCOc2cc(Cl)ccc2Oc2ccc(Cl)cc2Cl)cc1OC lower than 3 or not?
### Response false

### Prompt hey, is selectivity ratio for COc1ccc(/C=C/C(=O)OCCCCOc2cc(Cl)ccc2Oc2ccc(Cl)cc2Cl)cc1OC lower than 3 or not?
### Response true

### Prompt hey, is selectivity ratio for O=C(/C=C/c1ccc(O)c(O)c1)OCCCCCCCOc1cc(Cl)ccc1Oc1ccc(Cl)cc1Cl lower than 3 or not?
### Response true

### Prompt hey, is selectivity ratio for O=C(/C=C/c1ccc(O)c(O)c1)OCCCOc1cc(Cl)ccc1Oc1ccc(Cl)cc1Cl lower than 3 or not?
### Response false
